Parameter LACTATE DEHYDROGENASE: see the listing below.
# Organism: Rattus norvegicus
# ASSAY_PROTOCOL: DrugMatrix - Regimen: Daily Repeat
# Type: toxicity, organism-based, Sprague-Dawley
# Set-up: regimen Daily Repeat, gender Male, age 6-8 weeks
# ASSAY_SETUP: in vivo, po, 0 mg/kg, 120 h, tissue Plasma, route oral GAVAGE, dose level Control, time 5 day, vehicle 100 % WATER
Field format: number, assumed u/L, no unit text.

Consider the worked cases shown below.
COMPOUND	VALUE_OBSERVED
CN(C)CCOC(c1ccccc1)c1ccccc1 [DIPHENHYDRAMINE]	220.33
CC(C)(C)CC(C)(C)c1ccc(OCCOCC[N+](C)(C)Cc2ccccc2)cc1.[Cl-] [BENZETHONIUM CHLORIDE]	220.33

Could you now consider this next compound?
Input: Please look up its LACTATE DEHYDROGENASE: "CS(=O)(=O)c1ccc([C@@H](O)[C@@H](CO)NC(=O)C(Cl)Cl)cc1"
Output: 254.83

---

# Organism: Rattus norvegicus
# ASSAY_PROTOCOL: DrugMatrix - Regimen: Daily Repeat
# Type: toxicity, organism-based, Sprague-Dawley
# Set-up: regimen Daily Repeat, gender Male, age 6-8 weeks
# ASSAY_SETUP: in vivo, po, […], 120 h, tissue Blood, route oral GAVAGE, dose 7.5 mg/Kg, dose level High, time 5 day, vehicle 100 % SALINE
READOUT_KIND: ABSOLUTE MONOCYTE

Input: State the recorded ABSOLUTE MONOCYTE for this entry: "Nc1ncnc2c1ncn2[C@@H]1O[C@H](CO)[C@@H](O)[C@H]1F"
Output: 270 cells/µL

---

The following molecules are shown together with reported BLOOD UREA NITROGEN values.
# Species: Rattus norvegicus
# ASSAY_PROTOCOL: DrugMatrix - Regimen: Daily Repeat
# Format: toxicity, organism-based, Sprague-Dawley
# Design: regimen Daily Repeat, gender Male, age 6-8 weeks
# ASSAY_SETUP: in vivo, po, 2000 mg/kg, 72 h, tissue Plasma, route oral GAVAGE, dose level High, time 3 day, vehicle .5 % CMC
Only the number, expressed in mg/dL, is required.

Observe how each entry below is paired with its result.
MOLECULE	UNIT_STRING	BLOOD UREA NITROGEN
NC1CCN(c2nc3c(cc2F)c(=O)c(C(=O)O)cn3-c2ccc(F)cc2F)C1 (stereo unspecified)	mg/dL	11.33
CN/C(=N/CCSCc1nc[nH]c1C)NC#N	mg/dL	18
CN(C/C=C/C#CC(C)(C)C)Cc1cccc2ccccc12	mg/dL	11.33
CC1(C)S[C@@H]2[C@H](NC(=O)[C@H](N)c3ccccc3)C(=O)N2[C@H]1C(=O)O	mg/dL	18
O=C1Nc2ccc(Cl)cc2C(c2ccccc2Cl)=NC1O (stereo unspecified)	mg/dL	24

Below: the item to evaluate.
Input: Name the recorded BLOOD UREA NITROGEN for "COc1cc2nc(N3CCN(C(=O)c4ccco4)CC3)nc(N)c2cc1OC" .
Output: 18.33

---

# Species: Rattus norvegicus
# ASSAY_PROTOCOL: DrugMatrix - Regimen: Daily Repeat
# Assay type: toxicity, organism-based, Sprague-Dawley
# Design: regimen Daily Repeat, gender Male, age 6-8 weeks
# ASSAY_SETUP: in vivo, po, 1500 mg/kg, 120 h, tissue Plasma, route oral GAVAGE, dose level High, time 5 day, vehicle .5 % CMC
READOUT_KIND: LIPASE (u/L)
Write the answer as a number in u/L, unit excluded.

Input: Fill in: LIPASE of CC(C)Oc1ccc2c(=O)c(-c3ccccc3)coc2c1 [IPRIFLAVONE] is ___
Output: 9.67

Input: What value of LIPASE has been reported for the following compound? O=c1cnn([C@@H]2O[C@H](CO)[C@@H](O)[C@H]2O)c(=O)[nH]1 [6-AZAURIDINE]
Output: 9.33

Input: Form field: reported LIPASE of COC(=O)Nc1nc2ccc([S+]([O-])c3ccccc3)cc2[nH]1 (stereo not given) [OXFENDAZOLE]
Output: 9.33

Input: What value of LIPASE has been reported for the following compound? CN(C)[C@@H]1C(O)=C(C(N)=O)C(=O)[C@@]2(O)C(O)=C3C(=O)c4c(O)ccc(Cl)c4[C@@](C)(O)[C@H]3C[C@@H]12 [CHLORTETRACYCLINE]
Output: 10.33

Input: Param item = CC(C)=CCC/C(C)=C/CO [GERANIOL] ; retrieve measured LIPASE.
Output: 10
